Reported pKi values are given for each entry in this list.
target: GABA-A receptor; alpha-3/beta-3/gamma-2 (Homo sapiens, UniProt P18507+P28472+P34903); assay: Displacement of [3H]-Ro 15-1788 from Homo sapiens (human) recombinant GABAA alpha3beta3gamma2 receptor expressed in Ltk- cells after 1 hr by liquid scintillation counting
Sequence (P34903 whole entry, one chain of several): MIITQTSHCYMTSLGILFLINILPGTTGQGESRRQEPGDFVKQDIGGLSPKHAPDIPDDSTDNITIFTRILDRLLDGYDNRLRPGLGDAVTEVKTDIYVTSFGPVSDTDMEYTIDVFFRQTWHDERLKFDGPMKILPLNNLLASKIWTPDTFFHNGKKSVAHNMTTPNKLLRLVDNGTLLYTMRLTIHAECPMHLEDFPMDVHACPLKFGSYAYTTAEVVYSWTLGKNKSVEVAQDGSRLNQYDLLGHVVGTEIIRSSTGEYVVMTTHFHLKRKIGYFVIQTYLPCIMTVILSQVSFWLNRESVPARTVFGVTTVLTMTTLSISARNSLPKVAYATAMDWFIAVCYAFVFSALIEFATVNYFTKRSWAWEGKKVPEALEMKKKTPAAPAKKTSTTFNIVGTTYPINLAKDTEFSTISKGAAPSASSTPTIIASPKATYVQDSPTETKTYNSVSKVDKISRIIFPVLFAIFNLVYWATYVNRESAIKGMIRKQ
pKi: −log10 of the molar value.
MEASURED_QUANTITY: pKi

MOL: C=Cc1ccc2c(c1)C(=O)N1CCC[C@H]1c1c(C(=O)OC(C)(C)C)ncn1-2
MEASURED_QUANTITY: pKi
ASSAY_RESULT: 7.59
//
MOL: O=C(OCC(F)(F)F)c1ncn2c1[C@@H]1CCCN1C(=O)c1cc(-c3ccco3)ccc1-2
MEASURED_QUANTITY: pKi
ASSAY_RESULT: 7.28
//
MOL: C=Cc1ccc2c(c1)C(=O)N1CCC[C@H]1c1c(C(=O)OCC(F)(F)F)ncn1-2
MEASURED_QUANTITY: pKi
ASSAY_RESULT: 7.19
//
MOL: CC(C)(C)OC(=O)c1ncn2c1[C@@H]1CCCN1C(=O)c1cc(-c3ccccc3)ccc1-2
MEASURED_QUANTITY: pKi
ASSAY_RESULT: 7.23
//
MOL: CC(C)(C)OC(=O)c1ncn2c1[C@@H]1CCCN1C(=O)c1cc(Br)ccc1-2
MEASURED_QUANTITY: pKi
ASSAY_RESULT: 7.31

====

Reported pKi values are given for each entry in this list.
molecular target: GABA A receptor alpha-4/beta-3/gamma-2 (Homo sapiens, UniProt P18507+P28472+P48169); experiment: Displacement of [3H]-Ro 15-4513 from Homo sapiens (human) recombinant GABAA alpha4beta3gamma2 receptor expressed in Ltk- cells after 1 hr by liquid scintillation counting
Sequence (P18507 whole entry): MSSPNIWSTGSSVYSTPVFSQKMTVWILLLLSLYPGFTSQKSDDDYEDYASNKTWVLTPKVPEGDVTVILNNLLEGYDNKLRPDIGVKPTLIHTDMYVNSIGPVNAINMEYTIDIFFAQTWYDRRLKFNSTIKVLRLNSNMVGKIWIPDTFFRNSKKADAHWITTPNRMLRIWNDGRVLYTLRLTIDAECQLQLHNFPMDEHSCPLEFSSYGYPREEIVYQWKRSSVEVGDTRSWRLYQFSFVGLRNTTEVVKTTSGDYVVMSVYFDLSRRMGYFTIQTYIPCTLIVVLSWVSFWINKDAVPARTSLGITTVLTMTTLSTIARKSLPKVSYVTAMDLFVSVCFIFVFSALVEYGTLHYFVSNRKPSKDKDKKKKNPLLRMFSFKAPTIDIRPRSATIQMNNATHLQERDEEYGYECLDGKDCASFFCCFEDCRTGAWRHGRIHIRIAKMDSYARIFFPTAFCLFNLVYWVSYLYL
Sequence (P28472 whole entry): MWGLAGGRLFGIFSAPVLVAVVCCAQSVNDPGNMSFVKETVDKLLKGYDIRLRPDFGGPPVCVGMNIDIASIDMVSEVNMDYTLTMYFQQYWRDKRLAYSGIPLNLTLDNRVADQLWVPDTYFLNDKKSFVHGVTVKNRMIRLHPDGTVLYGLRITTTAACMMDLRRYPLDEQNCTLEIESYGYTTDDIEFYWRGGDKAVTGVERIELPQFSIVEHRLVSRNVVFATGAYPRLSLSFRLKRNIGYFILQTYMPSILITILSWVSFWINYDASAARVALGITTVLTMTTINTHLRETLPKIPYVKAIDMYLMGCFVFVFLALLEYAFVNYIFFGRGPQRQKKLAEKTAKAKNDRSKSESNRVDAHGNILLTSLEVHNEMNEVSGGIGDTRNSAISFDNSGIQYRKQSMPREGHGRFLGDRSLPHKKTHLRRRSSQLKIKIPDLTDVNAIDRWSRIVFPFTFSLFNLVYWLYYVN
Sequence (P48169 whole entry): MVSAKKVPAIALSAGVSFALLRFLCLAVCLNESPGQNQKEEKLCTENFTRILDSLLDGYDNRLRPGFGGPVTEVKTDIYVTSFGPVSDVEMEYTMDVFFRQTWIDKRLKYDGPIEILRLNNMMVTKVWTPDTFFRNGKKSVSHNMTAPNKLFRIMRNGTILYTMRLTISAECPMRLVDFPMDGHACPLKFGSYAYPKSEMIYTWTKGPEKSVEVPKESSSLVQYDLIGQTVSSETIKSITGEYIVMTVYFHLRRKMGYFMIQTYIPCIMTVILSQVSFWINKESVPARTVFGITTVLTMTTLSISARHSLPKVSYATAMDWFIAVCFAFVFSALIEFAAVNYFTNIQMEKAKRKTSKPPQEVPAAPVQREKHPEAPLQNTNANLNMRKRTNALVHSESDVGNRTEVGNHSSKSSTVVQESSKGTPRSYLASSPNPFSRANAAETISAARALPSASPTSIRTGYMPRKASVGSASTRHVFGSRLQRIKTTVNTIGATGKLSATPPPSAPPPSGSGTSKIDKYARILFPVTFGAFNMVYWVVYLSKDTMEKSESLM
pKi: −log10 of the molar value.

MOL: CC(C)(C)OC(=O)c1ncn2c1[C@@H]1CCCN1C(=O)c1cc(-c3ccccc3)ccc1-2
OPERATOR_SYMBOL: =
pKi: 6.94

MOL: CC(C)(C)OC(=O)c1ncn2c1[C@@H]1CCCN1C(=O)c1cc(-c3ccco3)ccc1-2
OPERATOR_SYMBOL: =
pKi: 7.94

MOL: CC(C)(C)OC(=O)c1ncn2c1[C@@H]1CCCN1C(=O)c1cc(-c3cccs3)ccc1-2
OPERATOR_SYMBOL: =
pKi: 6.92

MOL: O=C(OCC(F)(F)F)c1ncn2c1[C@@H]1CCCN1C(=O)c1ccccc1-2
OPERATOR_SYMBOL: <
pKi: 6.48

MOL: C=Cc1ccc2c(c1)C(=O)N1CCC[C@H]1c1c(C(=O)OC(C)(C)C)ncn1-2
OPERATOR_SYMBOL: =
pKi: 7.59

====

molecular target: GABA-A receptor; alpha-6/beta-3/gamma-2 (Homo sapiens, UniProt P18507+P28472+Q16445); test: Displacement of [3H]-Ro 15-4513 from Homo sapiens (human) recombinant GABAA alpha6beta3gamma2 receptor expressed in Ltk- cells after 1 hr by liquid scintillation counting
Sequence (Q16445 whole entry, one chain of several): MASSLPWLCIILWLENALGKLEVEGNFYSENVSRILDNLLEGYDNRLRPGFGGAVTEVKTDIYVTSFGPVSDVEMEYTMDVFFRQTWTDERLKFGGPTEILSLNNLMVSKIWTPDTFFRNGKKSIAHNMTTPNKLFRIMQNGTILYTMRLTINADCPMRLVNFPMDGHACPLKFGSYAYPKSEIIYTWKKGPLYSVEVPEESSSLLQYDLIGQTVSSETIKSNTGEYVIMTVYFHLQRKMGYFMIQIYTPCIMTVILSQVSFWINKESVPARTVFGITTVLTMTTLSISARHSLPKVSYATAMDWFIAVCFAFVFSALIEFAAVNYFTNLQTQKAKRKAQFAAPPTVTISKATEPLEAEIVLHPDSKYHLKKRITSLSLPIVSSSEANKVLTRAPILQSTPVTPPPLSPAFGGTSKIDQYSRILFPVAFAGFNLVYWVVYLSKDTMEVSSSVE

MOL: O=C(OCC(F)(F)F)c1ncn2c1[C@@H]1CCCN1C(=O)c1cc(-c3ccccc3)ccc1-2
DISPLAY_UNIT: µM
OPERATOR_SYMBOL: >
Ki: 0.333
--
MOL: CC(C)(C)OC(=O)c1ncn2c1[C@@H]1CCCN1C(=O)c1cc(Br)ccc1-2
DISPLAY_UNIT: µM
OPERATOR_SYMBOL: =
Ki: 0.072
--
MOL: CC(C)(C)OC(=O)c1ncn2c1[C@@H]1CCCN1C(=O)c1cc(-c3cccs3)ccc1-2
DISPLAY_UNIT: µM
OPERATOR_SYMBOL: >
Ki: 0.333
--
MOL: C#Cc1ccc2c(c1)C(=O)N1CCC[C@H]1c1c(C(=O)OC(C)(C)C)ncn1-2
DISPLAY_UNIT: µM
OPERATOR_SYMBOL: =
Ki: 0.308
--
MOL: O=C(OCC(F)(F)F)c1ncn2c1[C@@H]1CCCN1C(=O)c1cc(Br)ccc1-2
DISPLAY_UNIT: µM
OPERATOR_SYMBOL: >
Ki: 0.333
--
MOL: C#Cc1ccc2c(c1)C(=O)N1CCC[C@H]1c1c(C(=O)OCC(F)(F)F)ncn1-2
DISPLAY_UNIT: µM
OPERATOR_SYMBOL: =
Ki: 0.32
--
MOL: CC(C)(C)OC(=O)c1ncn2c1[C@@H]1CCCN1C(=O)c1cc(-c3ccccc3)ccc1-2
DISPLAY_UNIT: µM
OPERATOR_SYMBOL: >
Ki: 0.333
--
MOL: CC(C)(C)OC(=O)c1ncn2c1[C@@H]1CCCN1C(=O)c1cc(-c3ccco3)ccc1-2
DISPLAY_UNIT: µM
OPERATOR_SYMBOL: =
Ki: 0.046
--
MOL: CC(C)(C)OC(=O)c1ncn2c1[C@@H]1CCCN1C(=O)c1cc(C#C[Si](C)(C)C)ccc1-2
DISPLAY_UNIT: µM
OPERATOR_SYMBOL: >
Ki: 0.333

Values compiled from ChEMBL document CHEMBL3045465.
